- System: UO-31 renal
- assay procedure: NCI-60 one-dose screen, 48 h
- applied conditions: 10 µM unless noted
This is part of a sample that, as a whole, favours compounds with a hit. Of some 83,000 tested, about 20% had one in any assay. Active and inactive are the calls of the source. The calls were made as follows: active = growth percent below 10; inactive = the rest.
// allowed return values: T (active), F (inactive)

compound: CN(C)c1ccnc(CNCCSC2(c3ccc(C(F)(F)F)cc3)c3ccccc3C=Cc3ccccc32)c1
class: F
//
compound: NS(=O)(=O)c1ccc(CCNC(=O)CSc2ccc(-c3ccc(Br)cc3)nn2)cc1
class: F
//
compound: CN(C)c1nc(NCCNS(=O)(=O)c2ccc(C3=Nc4c(N)nc(N)nc4NC(c4ccc(Cl)cc4)C3)cc2)nc(Nc2ccc(F)cc2)n1 (stereo not drawn)
class: F
//
compound: CC(=O)OCC1OC(OC2C(COC(C)=O)OC(n3cc(COc4ccc5ccc(=O)oc5c4)nn3)C(OC(C)=O)C2OC(C)=O)C(OC(C)=O)C(OC(C)=O)C1OC(C)=O (stereo not drawn)
class: F
//
compound: O=C(c1ccc(OCCN2CCOCC2)cc1)C1[C@H](c2ccc(Cl)cc2)[C@@H](c2ccccc2)NC12C(=O)Nc1ccc(Cl)cc12 (stereo partly drawn)
class: F

Short answer needed: outcome of this test for Cc1cc2c(cc1Cl)C(=O)/C(=C/c1ccc(F)cc1)O2 ? T

Please indicate how the test categorized CCOP(=O)(OCCCl)c1nc(-c2ccc(C)cc2)oc1NCc1ccccc1 (stereo not drawn) . F

# outcome recorded in this test, key = O=c1oc2ccccc2cc1-c1csc(N2N=C(c3ccccc3)CC2c2ccc(N3CCOCC3)cc2)n1 (stereo not drawn) F

###

- Tested on: MALME-3M melanoma
- assay procedure: NCI-60 one-dose screen, 48 h (100 = growth as untreated, 0 = no growth, -100 = all killed)
- applied conditions: 10 µM unless noted
This is part of a sample that, as a whole, favours compounds with a hit. Of some 83,000 tested, about 20% had one in any assay.
Recorded growth split into classes range 1: < 30%; range 2: ≥ 30% and < 90%; range 3: ≥ 90%

Illustrative cases are given below, each with its answer.
molecule: Nc1nnc(-c2c[nH]c3ncc(Br)cc23)c(-c2c[nH]c3ccc(F)cc23)n1
target under test: MALME-3M melanoma
class: range 1
//
molecule: CCCSc1nc(NCCc2c[nH]c3ccccc23)c(C#N)c(-c2ccc(F)cc2)n1
target under test: MALME-3M melanoma
class: range 2
//
molecule: O=C(NNc1nc2cc(C(F)(F)F)ccc2n2cccc12)c1cnccn1
target under test: MALME-3M melanoma
class: range 1
//
molecule: COc1ccc(C(=O)/C=C/c2ccc(Oc3nc(Nc4ccc(F)cc4)nc(N(C)C)n3)c(OC)c2)cc1
target under test: MALME-3M melanoma
class: range 2
//
molecule: CCOP(=O)(OCCCl)c1nc(-c2ccc(C)cc2)oc1NCc1ccccc1 (stereo not drawn)
target under test: MALME-3M melanoma
class: range 3

Assign a bin to O=c1oc2ccccc2cc1-c1csc(N2N=C(c3ccccc3)CC2c2ccc(N3CCOCC3)cc2)n1 (stereo not drawn) range 3

Lab note: sort CCCCSc1nc(NCCc2c[nH]c3ccccc23)c(C#N)c(-c2ccc(OC)cc2)n1 into the matching growth band. range 3

Sort COc1cc2c3c(n(CCCN4CCC[C@@H]4CO)c(=O)c2cc1OC)-c1cc2c(cc1C3=O)OCO2 into one of the categories. range 1

Lab log: CC1=C(C(=O)OCc2ccccc2)C(c2c(O)cc(O)cc2O)n2c(nc3ccccc32)N1 (stereo not drawn) — assign growth category range 2

# bin label for NC(=S)Nc1cccc(NC(N)=S)c1 range 2

Hello team, could you let me know which band the following molecule falls into: COc1ccc(C(=O)/C=C/c2cccc(Cl)c2Cl)cc1S(N)(=O)=O range 1

Would you mind sorting CN1CCN(c2ccc3c(c2)nc(NNC(=O)c2ncccn2)c2cccn23)CC1 into the appropriate category? range 1

Bin this entry: CC(=O)OC[C@@]1(C)C2CC[C@]3(C)C(CC=C4C5CC(C)(C)CC[C@]5(C(=O)Nc5ccc(Br)cc5)CC[C@]43C)[C@@]2(C)C[C@@H](OC(C)=O)[C@@H]1OC(C)=O (stereo partly drawn) range 2

# bin lookup: classify O=C(Nc1cccc(-n2cnc3cc(-c4ccc(O)cc4)ccc32)c1)C1CC1 by its growth range 2

# bin label for N#Cc1c(-c2cccc3ccccc23)cc(-c2cccc(OCC(=O)O)c2)[nH]c1=O range 2

Field: class (growth) — entry: CC1(C)CC[C@]2(C(=O)O)CC[C@]3(C)C(=CCC4[C@@]5(C)C[C@@H](O)[C@@H]6OC(c7ccccc7F)OC[C@@]6(C)C5CC[C@]43C)C2C1 (stereo partly drawn) range 1

###

- System: A498 renal
- assay procedure: NCI-60 one-dose screen, 48 h
- applied conditions: 10 µM unless noted
Compounds without any hit were thinned out: in the full panel of roughly 83,000, 20% have a hit. The source made the active and inactive calls. The calls were made as follows: active = growth percent below 10; inactive = the rest.
Hello, when you answer, please use one of the following outcomes: label 1 for active, label 0 for inactive

Answered examples (3):
compound: CCCn1cc(-c2nc(Nc3ccc(C(=O)NCCCCNc4cccc5c4C(=O)N(C4CCC(=O)NC4=O)C5=O)cc3)nc3[nH]ccc23)cn1 (stereo unspecified)
target under test: A498 renal
class: label 1
--
compound: COc1ccccc1/C=C/C(=O)c1ccc(OC)c(S(N)(=O)=O)c1
target under test: A498 renal
class: label 0
--
compound: O=C(CSc1nc2ccccc2c(=O)[nH]1)NCCN1CCCCC1
target under test: A498 renal
class: label 0

Would you mind telling me which call this test gave N#Cc1c(-c2ccc(Cl)cc2)nc2n[nH]c(-c3ccc(Cl)cc3)c2c1-c1ccc(C(F)(F)F)cc1 ? label 0

Field: outcome | Entry: O=S(=O)(Nc1cccc(-n2cnc3cc(-c4ccc(O)cc4)ccc32)c1)C1CC1 label 0

// return assay outcome for CC(=O)Nc1ccc(C(=O)NC(=S)Nc2ccc(S(N)(=O)=O)cc2)cc1 label 0

Write down the call the test reported for this compound. Item: O=C(NN1C(=O)/C(=C/C=C/c2ccc([N+](=O)[O-])o2)SC1=S)c1cccc(O)c1 label 1

Query: recorded result category for Cc1cc(C)cc(NC(=O)Cn2cc(COn3nnc4ccccc43)nn2)c1 in this test label 0

Hello, I am checking results. What call was entered for COc1ccc(NC(=O)Cn2c(O)c(N=Nc3ccc(S(N)(=O)=O)cc3)c3ccccc32)cc1 ? label 0

Check the results log: what was the call for CC(C)CSc1nc(NCCc2c[nH]c3ccccc23)c(C#N)c(-c2ccc(F)cc2)n1 ? label 0

Outcome? Cc1cc2nc3c4ccccc4n(CCCN(C)C)c3nc2cc1C label 1

What call does the record list for O=C(c1ccc(OCCN2CCOCC2)cc1)C1[C@H](c2ccc(Cl)cc2)[C@@H](c2ccccc2)NC12C(=O)Nc1ccc(Cl)cc12 (stereo partly specified) ? label 0

Call for entry CCN(CC)c1ccnc(CNCCSC(c2ccccc2)(c2ccccc2)c2ccc(C)cc2)c1 : label 1

For this compound, state the assay outcome: CCOC(=O)C1=C(N)N(c2ccccc2)C2=C(C(=O)CC(C)(C)C2)C1c1ccc(Cl)cc1Cl (stereo unspecified) label 0

# outcome recorded in this test, key = CN(C)CCCNC(=O)c1cc(NC(=O)c2cc(NC(=O)c3ccc(/C=C/c4ccccc4)cc3)cn2C)cn1C label 0

###

- Tested on: SF-539 CNS
- assay procedure: NCI-60 one-dose screen, 48 h (100 = growth as untreated, 0 = no growth, -100 = all killed)
- applied conditions: 10 µM unless noted
Compounds without any hit were thinned out: in the full panel of roughly 83,000, 20% have a hit. Calls of active or inactive are those of the source. The calls were made as follows: active = growth percent below 10; inactive = the rest.
metric: growth

Solved cases below.
compound: COc1ccc(C2=NN(C(C)=O)C(c3ccc(OCc4ccc(Cl)cc4)c(OC)c3)C2)cc1OC (stereo unspecified)
growth: 63.8% (inactive)
--
compound: N#Cc1ccc(/C=N/NC(=O)c2[nH]c3ccc(Br)cc3c2-c2ccccc2)o1
growth: -16.8% (active)

For Cc1cccc(NC(=O)[C@]23CCC(C)(C)CC2C2=CCC4[C@@]5(C)C[C@@H](O)[C@H](O)[C@@](C)(CO)C5CC[C@@]4(C)[C@]2(C)CC3)c1 (stereo partly specified) the compound record lists growth as -2.33% (active)

Per the records, this compound ( Clc1cccc(N/N=C/c2c[nH]c3ccc(Br)cc23)n1 ) has growth equal to -1.26% (active)

###

- System: OVCAR-8 ovarian
- assay procedure: NCI-60 one-dose screen, 48 h
- applied conditions: 10 µM unless noted
This is part of a sample that, as a whole, favours compounds with a hit. Of some 83,000 tested, about 20% had one in any assay. Calls of active or inactive are those of the source. Rule for the calls: active = growth percent below 10; inactive = the rest.
Field 'call' accepts T = active, F = inactive

Recorded results for 2 compounds are shown here.
compound: O=C(c1ccc(OCCN2CCOCC2)cc1)C1[C@H](c2ccc(Cl)cc2)[C@@H](c2ccccc2)NC12C(=O)Nc1ccc(Br)cc12 (stereo partly drawn)
class: F

compound: O=C(NNc1nc2cc(C(F)(F)F)ccc2n2cccc12)c1cnccn1
class: T

What is the recorded call for this compound in the test? Cc1ncsc1-c1ccc(CNC(=O)[C@@H]2C[C@@H](O)CN2C(=O)[C@@H](NC(=O)C2(F)CC2)C(C)(C)C)c(OCCOCCOCCOCCOc2nc(Nc3cc(S(C)(=O)=O)ccc3N[C@@H](c3cccc4c3OC(F)(F)O4)c3ncccc3Cl)nc(N3CCNCC3)n2)c1 F
